// provenance: ChEMBL document CHEMBL6182833

Experiment: Selectivity index, ratio of CC50 for human HEp-2 cells to IC50 for Respiratory syncytial virus type B infected in human HEp-2 cells
Assay type: cell-based
Conditions: read-out: Ratio CC50/IC50
Note to self: use True only for selectivity ratio readings below 4; a reading exactly at 4 still gets False.

{"compound": "Cc1cc(=O)oc2cc(OCc3cn(CC4=CC[C@H]5C[C@@H]4C5(C)C)nn3)ccc12", "class-name": "True"}
{"compound": "CC(C)=CCC/C(C)=C/CCOc1ccc2c(C)cc(=O)oc2c1", "class-name": "False"}
{"compound": "CC(C)CCCC(C)CCn1cc(COc2ccc3c4c(c(=O)oc3c2)CCC4)nn1 (configuration not stated)", "class-name": "False"}
{"compound": "CC(C)=CCCC(C)=CCn1cc(COc2ccc3c4c(c(=O)oc3c2)CCC4)nn1", "class-name": "True"}
{"compound": "CC(C)c1ccc(Cn2cc(COc3ccc4c(-c5ccccc5)cc(=O)oc4c3)nn2)cc1", "class-name": "False"}
{"compound": "CC1(C)[C@@H]2CC=C(COc3ccc4c5c(c(=O)oc4c3)CCCC5)[C@H]1C2", "class-name": "False"}
{"compound": "Cc1cc(=O)oc2cc(OCc3cn(Cc4ccc(C(C)C)cc4)nn3)ccc12", "class-name": "False"}
{"compound": "CC(C)=CCCC(C)=CCn1cc(COc2ccc3c(-c4ccccc4)cc(=O)oc3c2)nn1", "class-name": "True"}
{"compound": "CC1(C)[C@@H]2CC=C(Cn3cc(COc4ccc5c(-c6ccccc6)cc(=O)oc5c4)nn3)[C@H]1C2", "class-name": "False"}
{"compound": "CC(C)=CCCC(C)=CCn1cc(COc2ccc3c4c(c(=O)oc3c2)CCCC4)nn1", "class-name": "False"}
{"compound": "CC1(C)[C@H]2CC=C(Cn3cc(COc4ccc5c6c(c(=O)oc5c4)CCC6)nn3)[C@@H]1C2", "class-name": "True"}

====

Reported values of CC50 for individual entries
System: HEp-2
Experiment: Cytotoxicity against human HEp-2 cells assessed as cell growth inhibition measured after 24 hrs by MTT assay
Format: functional

{"molecule": "CC(C)=CCCC(C)=CCn1cc(COc2ccc3c4c(c(=O)oc3c2)CCC4)nn1", "units-text": "µM", "CC50": 19.1}
{"molecule": "CC(C)=CCCC(C)=CCn1cc(COc2ccc3c(-c4ccccc4)cc(=O)oc3c2)nn1", "units-text": "µM", "CC50": 12.3}
{"molecule": "Cc1cc(=O)oc2cc(OCC3=CC[C@@H]4C[C@H]3C4(C)C)ccc12", "units-text": "µM", "CC50": 116}
{"molecule": "CC(C)=CCC/C(C)=C/CCOc1ccc2c3c(c(=O)oc2c1)CCCC3", "units-text": "µM", "CC50": 51.1}
{"molecule": "CC1(C)[C@H]2CC=C(COc3ccc4c5c(c(=O)oc4c3)CCCC5)[C@@H]1C2", "units-text": "µM", "CC50": 334}
{"molecule": "CC(C)=CCCC(C)=CCn1cc(COc2ccc3c4c(c(=O)oc3c2)CCCC4)nn1", "units-text": "µM", "CC50": 279}
{"molecule": "CC(C)c1ccc(Cn2cc(COc3ccc4c5c(c(=O)oc4c3)CCC5)nn2)cc1", "units-text": "µM", "CC50": 38.5}
{"molecule": "CC(C)CCCC(C)CCn1cc(COc2ccc3c(-c4ccccc4)cc(=O)oc3c2)nn1 (centres undefined)", "units-text": "µM", "CC50": 14.6}
{"molecule": "CC1(C)[C@H]2CC=C(COc3ccc4c5c(c(=O)oc4c3)CCC5)[C@@H]1C2", "units-text": "µM", "CC50": 13.4}
